- test system: huPD-L1 (Homo sapiens, UniProt Q9NZQ7)
- Sequence (Q9NZQ7 19-290): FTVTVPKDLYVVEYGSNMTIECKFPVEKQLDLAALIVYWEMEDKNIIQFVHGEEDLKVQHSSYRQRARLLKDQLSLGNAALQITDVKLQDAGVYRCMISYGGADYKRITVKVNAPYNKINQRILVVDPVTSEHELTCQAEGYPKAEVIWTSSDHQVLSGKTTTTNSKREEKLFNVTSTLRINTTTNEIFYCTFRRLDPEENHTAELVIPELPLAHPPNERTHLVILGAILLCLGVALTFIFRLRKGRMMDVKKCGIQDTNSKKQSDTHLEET
- test details: Flow binding to CHO cells stably expressing PD-L1
- Design: huCTLA4 and huPD-L1, full-length mammalian surface expression constructs were generated; expressed in transfected cells; host or cells: CHO cells, lentiviral transduction, sorted to >98% purity
- measurement context: Table E19; MFI at 33.3 nM relative to WT CD80 ECD-Fc (Abcam)
experimental readout: PD-L1 Fold change to WT CD80 (fold)
Give the number; fold is assumed, so skip it.

Record summary for E35D/M47L/V68M (protein) VIHVTKEVKEVATLSCGHNVSVEELAQTRIYWQKDKKMVLTMMSGDLNIWPEYKNRTIFDITNNLSIMILALRPSDEGTYECVVLKYEKDAFKREHLAEVTLSVKAD : reported PD-L1 Fold change to WT CD80 = 217.9
